test: Peptide stability in simulated gastric fluid (SGF); format: in vitro ADME; conditions: pig, simulated gastric fluid (SGF) with porcine pepsin, Table 3-3, porcine pepsin, pH 1.2, 37° C., 10 μM, 4 h, read-out: SGF (% remaining 4 h)
*1 amine or outer side, *2 acyl side, *3 side chain or, on linkers, in order; H or OH if unused. Where a SMILES comes first, the peptide text is derived from it. Bridges are numbered along the chain shown (N, C = ends). [ ]: non-standard residue; d: D form. 2Nal = N[C@@H](Cc1ccc2ccccc2c1)C(=O)O; αMeL = CC(C)C[C@](C)(N)C(=O)O; CH2COCH2 = O=C(C[*:1])C[*:2]
measure-name: remaining at 4 h, 10 μM (%)
Hi! Could you send only the number? It should be in %, unit omitted.

Kindly note the recorded remaining at 4 h, 10 μM for CC(=O)N[C@@H](CC(=O)O)C(=O)N[C@H]1CCC(=O)NCCCC[C@@H](C(=O)N[C@@H](CCCNC(=N)N)C(N)=O)NC(=O)[C@](C)(CC(C)C)NC(=O)[C@H](Cc2ccc3ccccc3c2)NC(=O)[C@H](Cc2c[nH]c3ccccc23)NC(=O)[C@@H]2CSCC(=O)CSC[C@H](NC(=O)[C@H]([C@@H](C)O)NC1=O)C(=O)N[C@@H](Cc1c[nH]c3ccccc13)C(=O)N[C@@H](CCC(N)=O)C(=O)N2 [Compound 57] (Ac-DETCWQCW[2Nal][αMeL]KR-NH2; lactam 2-11; linker 4-7 via CH2COCH2) , which is 1

----------
test: Peptide stability in simulated gastric fluid (SGF); type: in vitro ADME; conditions: pig, Table 3-3, porcine pepsin, pH 1.2, 37° C., 10 μM, 1 h, read-out: SGF (% remaining 1 h)
measure-name: remaining at 1 h, 10 μM (%)
Hi! Could you send only the number? It should be in %, unit omitted.

Kindly note the recorded remaining at 1 h, 10 μM for `CC(C)C[C@]1(C)NC(=O)[C@H](Cc2c[nH]c3ccccc23)NC(=O)[C@H](Cc2c[nH]c3ccccc23)NC(=O)[C@@H]2CSCC(=O)CSC[C@H](NC(=O)[C@H](CO)NC(=O)[C@@H](NC(=O)[C@@H](N)CC(=O)O)CSCC(=O)CSC[C@@H](C(=O)N[C@@H](CCCNC(=N)N)C(N)=O)NC1=O)C(=O)N[C@@H](Cc1c[nH]c3ccccc13)C(=O)N[C@@H](CCC(N)=O)C(=O)N2` , which is 86

Value source: patent US20250154198A1
